Test system: SNB-19 CNS
Assay: NCI tumour cell line growth inhibition, 48 h
Where a SMILES comes first, the peptide text is derived from it. Bridges are numbered along the chain shown (N, C = ends). The star is where a group is joined. Cbz = O=C(OCc1ccccc1)*
metric name: TGI

Challenge: Form field: reported TGI of O=C1C2C3CC4C5C3C1C5C1(SCCS1)C42 (stereo not drawn)
Response given: > 100 µM

Challenge: Another molecule: `Cc1ccc(S(=O)(=O)n2cc(/C=C/C#N)c(-c3cn(S(=O)(=O)c4ccc(C)cc4)cc3-c3cn(S(=O)(=O)c4ccc(C)cc4)cc3/C=C/C#N)c2)cc1`
Response given: > 100 µM

Challenge: Another molecule: `CCNC1=C(NC(=O)c2ccc(F)cc2)C(=O)c2ccccc2C1=O`
Response given: > 100 µM

Challenge: Another molecule: `CNC(=O)Oc1cc(C(C)C)ccc1Sc1ccc(C(C)C)cc1OC(=O)NC`
Response given: 24.4 µM

Challenge: Another molecule: CC(=O)OCC1C(=O)OCC1C(=O)N1Cc2cc3ccccc3nc2C1 (stereo not drawn)
Response given: 32.8 µM

Challenge: Another molecule: CC(C#N)(c1ccccc1)N(CCc1ccccc1)C(=O)Oc1ccccc1 (stereo not drawn)
Response given: > 100 µM

Challenge: Another molecule: `CC(=O)CCC#Cc1ccccc1C(=O)C(C)=[N+]=[N-]`
Response given: > 100 µM

Challenge: Another molecule: `CC1(C)N=C(N)N=C(N)N1c1ccc(OCCCNC(=O)Nc2ccc(S(=O)(=O)F)cc2)c(Cl)c1`
Response given: > 100 µM

Challenge: Another molecule: CC1=C(O)C(=O)C=C2C1=CC=C1[C@@]2(C)CC[C@@]2(C)C3C[C@@H](C)C(=O)[C@@H](O)[C@]3(C)CC[C@]12C (stereo partly drawn)
Response given: 9.23 µM

Challenge: Another molecule: COC(=O)C(=O)C(C#N)c1nc2ccccc2s1 (stereo not drawn)
Response given: > 100 µM

Challenge: Another molecule: `COC(=O)c1c2c(c(C)[n+]([O-])c1C)C(=O)C(NCc1ccc(OC)cc1)=CC2=O`
Response given: 5.03 µM

Challenge: Another molecule: `O=C(O)c1ccc(N(/C=C/C(=O)C(F)(F)F)Cc2ccc(Cl)cc2)cc1`
Response given: > 100 µM

Challenge: Another molecule: CNC(=O)C1CCCCNC(=O)CCC(NC(=O)OCc2ccccc2)C(=O)N1 (stereo not drawn) (Cbz-Glu-Lys-NHMe; lactam 1-2; configuration not given here)
Response given: > 100 µM

---

Consider the following compounds; for each one, report its TGI.
System: M14 melanoma
Experiment: NCI tumour cell line growth inhibition, 48 h
Where a SMILES comes first, the peptide text is derived from it. Bridges are numbered along the chain shown (N, C = ends). The star is where a group is joined. Cbz = O=C(OCc1ccccc1)*

Challenge: Form field: reported TGI of COC(=O)NC(=O)NC(Cc1ccccc1)NC(=O)OCc1ccccc1 (stereo not given)
Response given: > 100 µM

Challenge: Another compound: CC(C)(C)[Si](C)(C)OCC1OC(n2cnc3c(N)ncnc32)C2OC(=S)OC12 (stereo not given)
Response given: > 100 µM

Challenge: Another compound: `COc1cc(/C=C/C(=O)c2cccc(-n3cc(-c4ccccc4)[nH]c3=O)c2)cc(OC)c1OC`
Response given: 2.72 µM

Challenge: Another compound: `O=C(O)/C=C/c1ccc(O)c(O)c1`
Response given: > 100 µM

Challenge: Another compound: `Cc1ccc(S(=O)(=O)NNC(=O)Nc2cccc(C(F)(F)F)c2)cc1`
Response given: > 100 µM

Challenge: Another compound: `CC(=O)CCC#Cc1ccccc1C(=O)C(C)=[N+]=[N-]`
Response given: > 100 µM

Challenge: Another compound: CC1(OCc2ccccc2)C(=O)N2C1NCC2(C)C (stereo not given)
Response given: > 100 µM

Challenge: Another compound: `C=C1CC[C@](C)(O)[C@@]2(C)CC[C@H]3C(=C(C)C)C(=O)C[C@]3(C)C[C@H]12`
Response given: > 50 µM

Challenge: Another compound: `O=c1c2ccccc2nc(-c2cccc([N+](=O)[O-])c2)n1O`
Response given: > 100 µM

Challenge: Another compound: COC(=O)C(=O)C(C(=O)C(=O)Nc1ccc(Cl)c(Cl)c1)c1nc2ccc(C(=O)c3ccccc3)cc2[nH]c1=O (stereo not given)
Response given: > 100 µM

Challenge: Another compound: `COc1cccc2c1nc(C(F)F)n2-c1nc(-c2ccc(NS(=O)(=O)CCN(C)C)cc2)nc(N2CCOCC2)n1`
Response given: > 100 µM

Challenge: Another compound: CNC(=O)C1CCCCNC(=O)CCC(NC(=O)OCc2ccccc2)C(=O)N1 (stereo not drawn) (Cbz-Glu-Lys-NHMe; lactam 1-2; configuration not given here)
Response given: > 100 µM

Challenge: Another compound: `O=[N+]([O-])c1ccc(C2=NCCO2)cc1`
Response given: > 100 µM

Challenge: Another compound: `NC(N)=N/N=C/c1c(-c2ccccc2[N+](=O)[O-])nc2sccn12`
Response given: 31.2 µM

Challenge: Another compound: `COc1ccc(-c2nc3sc(-c4cc(OC)c(OC)c(OC)c4)nn3c2/C=C2/C(=O)Nc3ccc(F)cc32)cc1`
Response given: 28.1 µM

Challenge: Another compound: OCC(O)COCn1cc(Cn2ncc3c(SCc4ccccc4)ncnc32)nn1 (stereo not given)
Response given: > 100 µM

Challenge: Another compound: `ClC1=C(Cl)C(Cl)(C2(Cl)C(Cl)=C(Cl)C(Cl)=C2Cl)C(Cl)=C1Cl`
Response given: 0.716 µM

Challenge: Another compound: O=C(O)C(Cc1cc(I)c(O)c(I)c1)C1CCCCC1 (stereo not given)
Response given: > 100 µM

Challenge: Another compound: COc1ccc(C(=O)C(C(=O)CCC(=O)Nc2ccc(Cl)c(Cl)c2)c2ccc(OC)cc2)cc1 (stereo not given)
Response given: > 100 µM

Challenge: Another compound: COC(=O)C(Cc1ccccc1)NC(=O)CSc1nnc(COc2ccc(Cl)cc2)n1-c1ccccc1 (stereo not given)
Response given: 35.1 µM
